STUDY_SYSTEM: rASCT2 (Rattus norvegicus)
Construct: expressed in transfected cells; host or cells: HEK293 (ATCC CRL-11268), transient transfection
Sequence (D3ZJ25 1-555): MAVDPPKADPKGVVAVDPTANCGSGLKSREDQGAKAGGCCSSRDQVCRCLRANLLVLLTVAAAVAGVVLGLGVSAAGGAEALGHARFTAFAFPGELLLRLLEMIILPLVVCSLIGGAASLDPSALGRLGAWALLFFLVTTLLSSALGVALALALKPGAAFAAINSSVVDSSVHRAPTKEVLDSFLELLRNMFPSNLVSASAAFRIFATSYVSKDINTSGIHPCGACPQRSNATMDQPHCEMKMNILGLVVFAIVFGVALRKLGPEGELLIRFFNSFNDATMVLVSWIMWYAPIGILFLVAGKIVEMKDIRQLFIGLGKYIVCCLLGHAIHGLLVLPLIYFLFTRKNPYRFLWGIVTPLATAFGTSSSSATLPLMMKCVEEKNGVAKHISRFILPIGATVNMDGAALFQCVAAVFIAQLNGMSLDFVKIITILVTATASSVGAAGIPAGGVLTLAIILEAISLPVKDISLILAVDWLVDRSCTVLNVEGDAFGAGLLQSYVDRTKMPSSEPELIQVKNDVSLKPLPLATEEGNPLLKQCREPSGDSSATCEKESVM
ASSAY_PROTOCOL: Electrophysiology (whole-cell current recording) of transfected HEK293 cells, rASCT2
Format: cell-based
RECORDED_CONDITIONS: Table 3, dihydroxyproline derivatives; read-out: Ki All DNA: rASCT2
REPORTED_METRIC: Ki (µM)
One number for each entry, in µM.

Reference set (2 entries):
O=C(O[C@]1(CO)CN[C@H](C(=O)O)C1)c1ccc(-c2ccc(F)cc2)cc1    2.16
O=C(OC[C@]1(O)CN[C@H](C(=O)O)C1)c1ccc(-c2ccccc2)cc1    25.8

[ask] Look up Ki: `O=C(O[C@]1(CO)CN[C@H](C(=O)O)C1)c1ccc(-c2ccccc2)cc1`
[reply] 8.03

----------
STUDY_SYSTEM: hASCT2 (Homo sapiens, UniProt Q15758)
Construct: expressed in transfected cells; host or cells: HEK293 (ATCC CRL-11268), transient transfection
Sequence (Q15758 whole entry): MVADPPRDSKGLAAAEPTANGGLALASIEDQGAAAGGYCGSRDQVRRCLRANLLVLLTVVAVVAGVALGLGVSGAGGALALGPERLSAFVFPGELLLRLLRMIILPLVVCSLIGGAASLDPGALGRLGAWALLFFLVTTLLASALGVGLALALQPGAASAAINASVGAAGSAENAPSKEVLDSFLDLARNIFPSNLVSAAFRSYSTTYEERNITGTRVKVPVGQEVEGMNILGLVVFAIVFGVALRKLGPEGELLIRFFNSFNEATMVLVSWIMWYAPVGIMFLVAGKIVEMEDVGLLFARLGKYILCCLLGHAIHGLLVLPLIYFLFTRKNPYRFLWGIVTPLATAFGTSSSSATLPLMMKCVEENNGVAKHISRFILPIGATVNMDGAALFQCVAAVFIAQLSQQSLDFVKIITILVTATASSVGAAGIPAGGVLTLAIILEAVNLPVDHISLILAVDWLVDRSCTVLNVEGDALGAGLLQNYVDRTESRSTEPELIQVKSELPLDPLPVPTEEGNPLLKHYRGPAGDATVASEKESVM
ASSAY_PROTOCOL: Competition experiment with alanine, hASCT2
Assay type: cell-based
RECORDED_CONDITIONS: 1 mM ala; first entry of the cell; read-out: Competition Expt (h/rASCT2 Ki): hASCT2 Ki
REPORTED_METRIC: Ki (µM)
Numbers only, in µM.

O=C(OC[C@@]1(O)CN[C@H](C(=O)O)C1)c1ccc(-c2ccccc2)cc1    40
O=C(OC[C@@]1(O)CN[C@H](C(=O)O)C1)c1ccc(-c2ccc(C(F)(F)F)cc2)cc1    19.4

The following compounds each have a reported value; give each one's Ki.
1. O=C(OC[C@]1(O)CN[C@H](C(=O)O)C1)c1ccc(-c2ccc(F)cc2)cc1
2. O=C(OC[C@@]1(O)CN[C@H](C(=O)O)C1)c1ccc(-c2ccc(F)cc2)cc1
3. O=C(O[C@]1(CO)CN[C@H](C(=O)O)C1)c1ccc(-c2ccccc2)cc1

[reply]
1: 28; 2: 19.2; 3: 22.3

----------
STUDY_SYSTEM: EAAC1 (UniProt P51907)
Construct: Ki EAAC1; other: apparent Ki, HEK293, internal solution 10 mM glutamate, mean ± SD
ASSAY_PROTOCOL: Electrophysiology specificity experiment in transfected HEK293 cells, EAAC1
RECORDED_CONDITIONS: apparent Ki, HEK293, internal solution 10 mM glutamate, mean ± SD
Lab note: compare Ki with 7 µM, writing criterion met if less and criterion not met if equal or more.

[ask] Bench note: check whether `O=C(O)[C@H]1NC[C@@H](NCc2ccc(-c3ccccc3)cc2)[C@@H]1O` shows Ki below 7 µM
[reply] criterion not met

[ask] Consider next the compound `O=C(O)[C@@H]1C[C@H](NCc2ccc(-c3ccccc3)cc2)CN1` in the same way.
[reply] criterion not met

[ask] Consider next the compound `N[C@@H](COC(=O)c1ccc(NC(=O)c2ccccc2)cc1)C(=O)O` in the same way.
[reply] criterion not met

[ask] Consider next the compound `Cc1ccccc1-c1ccc(C(=O)O[C@@H]2CN[C@H](C(=O)O)C2)cc1C` in the same way.
[reply] criterion met

[ask] Consider next the compound `Cc1ccccc1-c1ccc(C(=O)O[C@@H]2CN[C@H](C(=O)O)C2)cc1` in the same way.
[reply] criterion met

[ask] Consider next the compound `O=C(O)[C@@H]1C[C@H](OCc2ccc(-c3ccccc3)cc2)CN1` in the same way.
[reply] criterion met

[ask] Consider next the compound `O=C(O[C@@H]1CN[C@H](C(=O)O)C1)c1ccc(-c2ccccc2)cc1` in the same way.
[reply] criterion not met
